# Tested on: L1210 leukemia ip in BDF1 mice, survival T/C
# testDescription: NCI In Vivo Anticancer Drug Screen. Data for tumor model L1210 Leukemia (intraperitoneal) in B6D2F1 (BDF1) mice
# testSettings: endpoint: mean survival time; dose: 400.0 mg/kg/injection; schedule: Q04DX002 (ip); vehicle: Klucel (hydroxypropylcellulose) (HPC); higher = longer survival
Toxic doses and inconclusive results are not listed.
Collected T/C values appear next to each entry.

Use the examples below as a reference point.
compound	measure	obsValue
COc1ccc(OC)c(C(=O)CSC(=S)OC(C)C)c1	T/C	96 % of control
COc1ccc(-n2cccc2C(N)=O)cc1OC	T/C	90 % of control
COc1cc(/C=N/NC(=O)Cc2cccc3ccccc23)ccc1O	T/C	96 % of control
CCOC(=O)CNc1ccc(Cl)c(C)c1	T/C	111 % of control
O=C(COc1cc(Cl)c(Cl)cc1Cl)Nc1ccc(N=Nc2ccccc2)cc1	T/C	86 % of control
Cc1cc(C)c2c(c1)C/C2=N\O	T/C	103 % of control
CCn1cc(C(=O)O)c(=O)c2c3ccccc3ccc21	T/C	100 % of control
O=S(=O)(c1ccccc1)C(Br)c1ccc(F)cc1 (stereo not given)	T/C	101 % of control
COc1ccc(NC(=S)N(CCC#N)C2CCCCC2)cc1	T/C	90 % of control
COC1=NS(=O)(=O)N=C(c2ccc(OC)cc2)O1	T/C	89 % of control

Please report the recorded T/C for Cc1cccc(N2P(N(C)C)N(c3cccc(C)c3)P2(=O)N(C)C)c1 (stereo not given) . 94 % of control

Queued: `Cc1ccc([N+](=O)[O-])cc1NC(=O)N(CCO)C1CCCCC1` 104 % of control

Queued: CC(C)(S)C(N)C(N)=O (stereo not given) 97 % of control

* * *

Collected T/C values appear next to each entry.
# System: L1210 leukemia ip in BDF1 mice, survival T/C
# testDescription: NCI In Vivo Anticancer Drug Screen. Data for tumor model L1210 Leukemia (intraperitoneal) in B6D2F1 (BDF1) mice
# testSettings: endpoint: mean survival time; dose: 100.0 mg/kg/injection; schedule: Q04DX003 (ip); vehicle: saline; higher = longer survival
Inconclusive results and toxic doses are left out.

compound	obsValue
CCCCCCCCNC(C(=O)c1ccc(Cl)cc1)c1ccc(Cl)cc1 (stereo unspecified)	98 % of control
c1ccc2cc3c(cc2c1)Cn1c-3nc2ccccc21	98 % of control
COc1ccccc1C(C#N)N1CCCN(C(C#N)c2ccccc2OC)C1c1cc(Cl)cc(Cl)c1O (stereo unspecified)	112 % of control
CC(=O)Nc1cccnc1	94 % of control

Please report the recorded T/C for `CCOC(=O)C(C)(C)CSC(C)(C)C(=O)OCC` . 110 % of control

Queued: `CCCCCCCCCCCCOCCOCCOCC(N)=O` 97 % of control

* * *

# System: L1210 leukemia ip in BDF1 mice, survival T/C
# testDescription: NCI In Vivo Anticancer Drug Screen. Data for tumor model L1210 Leukemia (intraperitoneal) in B6D2F1 (BDF1) mice
# testSettings: endpoint: mean survival time; dose: 400.0 mg/kg/injection; schedule: Q01DX009 (ip); vehicle: saline
Toxic doses and inconclusive results are not listed. No stated cut-off is given here; in the data, active means T/C of 150% or more; inactive means T/C below 125%.
Respond only with the outcome that fits, drawn from True (active), False (inactive)

molecule	discreteLabel
N=C(N)SCCC(=O)O	False

Returns: the outcome recorded for `CN1CCCC(=O)NC1=O` in this assay. False

Queued: `COc1cc(Br)c(CCC(=O)O)cc1OC` False

Queued: `O=C1Nc2ccccc2C1=O` False

Queued: `COc1ccc(C(=O)c2cc(OC)c(OC)c(OC)c2)cc1OC` False

Queued: CC1(COCCOCC2(C)CO2)CO1 (configuration not stated) True

Queued: `COc1cc(Cl)c(CC(=O)c2c[nH]c3ccccc23)cc1OC` False

Source: PubChem BioAssay AID248
